// provenance: ChEMBL document CHEMBL3603774

- Tested on: Staphylococcus aureus
- ASSAY_TEXT: Antibacterial activity against Staphylococcus aureus MTCC 96 after 24 hrs by microdilution method
- Assay type: functional
- CONDITION_PARAMETERS: MTCC 96, 24 h
METRIC: MIC (µg/mL)
Report the figure in µg/mL without appending any unit label.

// known answers, use as guide
CCOC(=O)c1c(-c2ccccc2)nn(-c2ccccc2)c1COc1ccccc1C=O; 55
CCOC(=O)c1c(-c2ccccc2)nn(-c2ccccc2)c1Cn1c(S)nc2ccccc21; 20
CCOC(=O)c1c(-c2ccccc2)nn(-c2ccccc2)c1Cn1cnc2cc([N+](=O)[O-])ccc21; 25
CCOC(=O)c1c(-c2ccccc2)nn(-c2ccccc2)c1COCc1ccccc1; 40

Problem: Could you share which MIC value was measured for `CCOC(=O)c1c(-c2ccccc2)nn(-c2ccccc2)c1COc1ccc(C=O)cc1OC` ?
Result: 45

Problem: Consider next the compound `CCOC(=O)c1c(-c2ccccc2)nn(-c2ccccc2)c1Cn1c(S)nc2ccc(OC(F)F)cc21` in the same way.
Result: 20

Problem: Please give the result for `CCOC(=O)c1c(-c2ccccc2)nn(-c2ccccc2)c1Cn1c(Cl)nc2ccccc21` too.
Result: 30

Problem: Now try `CN(C)[C@@H]1C(O)=C(C(N)=O)C(=O)[C@@]2(O)C(O)=C3C(=O)c4c(O)cccc4[C@@](C)(O)[C@H]3C[C@@H]12` .
Result: 10
